- System: progesterone receptor (PR)
- test-details: Uterine progesterone receptor levels, hydroxyapatite assay (Example 8)
- Type: in vivo, female Sprague-Dawley rats
- assay-conditions: dose-response, 25 μmol/kg + 17β-estradiol (2 × 10 μg/rat)
- Description: The animals were terminated by cervical dislocation. Livers were perfused with ice-cold TEDG buffer (10 mM Tris-HCl, 1.5 mM EDTA-4Na, 1 mM dithiothreitol, 10% glycerol (v/v), pH 7.4). […] Estrogen and progesterone receptor levels were determined within 7 days. Estrogen (ER) and progesterone (PR) receptor levels were determined by the hydroxyapatite assay as described by Clark et al. (J. Steroid Biochem. 16:323-328, 1982) and incorporated herein by reference. […]
Reported Progesterone Receptor Levels, Nuclear values for a set of molecules
Hi! Could you send only the number? It should be in fmol/mg protein, unit omitted.

Worked examples, 3 molecules total:
{"columns": ["molecule", "readout-unit", "Progesterone Receptor Levels, Nuclear"],
 "data": [
  ["Cc1cc2c(cc1Cl)oc1cc(Cl)c(Cl)cc12 [8-methyl-2,3,7-triCDF, 8-Methyl-2,3,7-Trichlorodibenzofuran]", "fmol/mg protein", 631],
  ["CCCc1cc(Cl)cc2c1oc1cc(Cl)cc(Cl)c12 [6-Propyl-1,3,8-Trichlorodibenzofuran]", "fmol/mg protein", 515],
  ["Cc1cc2c(cc1Cl)oc1c(Cl)c(Cl)c(Cl)cc12 [8-Methyl-2,3,4,7-tetraCDF, 8-Methyl-2,3,4,7-tetrachlorodibenzofuran]", "fmol/mg protein", 697]
]}

In: Could you tell me which Progesterone Receptor Levels, Nuclear is on file for Cc1cc(Cl)cc2c1oc1c(Cl)c(Cl)c(Cl)cc12 [6-Methyl-2,3,4,8-tetraCDF, 6-Methyl-2,3,4,8-tetrachlorodibenzofuran] ?
Out: 645

These measurements were taken from patent US5516790A.
